Classification field: enter rule met for melting point values not below 90 °C, rule not met for values below it.

Answered cases to consult:
[[record]]
compound = "COc1ccc2cc([N+](=O)[O-])ccc2c1C(=O)O"
category_label = "rule met"

[[record]]
compound = "Nc1ccncc1N"
category_label = "rule met"

[[record]]
compound = "C=CCCCCCCCC"
category_label = "rule not met"

[[record]]
compound = "C=Cc1cccc([N+](=O)[O-])c1 [m-nitrostyrene]"
category_label = "rule not met"

[[record]]
compound = "Cc1cc(=O)n(-c2ccccc2)n1C [1,5-Dimethyl-2-phenyl-1,2-dihydro-3H-pyrazol-3-one]"
category_label = "rule met"


Here is another compound to look at.
Check if melting point >= 90 °C (inclusive). Item: `COc1cc(C#N)cc(OC)c1OC`
rule met

###

Recorded measurements of melting point, one per entry
Return type: number; implicit unit °C.

Consider the following illustrative entries.
[[record]]
compound = "Cc1cccc(N/N=C(\\C#N)c2nc(-c3ccc(Cl)cc3)cs2)c1"
property = "melting point"
value_unit = "°C"
measured_result = 158

[[record]]
compound = "CCCC(=O)O [butyric acid]"
property = "melting point"
value_unit = "°C"
measured_result = -5.7


Need melting point, item Cc1ccnc(C)c1 [2,4-lutidine]
-60

Need melting point, item N#Cc1cc(C#N)c(C#N)cc1C#N [Benzene-1,2,4,5-tetracarbonitrile]
265

Need melting point, item `CCOC(=O)/C(=N/Nc1ccccc1[N+](=O)[O-])C(C)=O`
74

###

Recorded measurements of melting point, one per entry
Return type: number; implicit unit °C.

Consider the following illustrative entries.
[[record]]
molecule = "c1ccc(CN(CC2=NCCN2)c2ccccc2)cc1 [antazoline]"
value_unit = "°C"
measured_result = 120

[[record]]
molecule = "CC(C)(C)OOC(=O)c1ccccc1 [tert-Butyl benzenecarboperoxoate]"
value_unit = "°C"
measured_result = 8


Need melting point, item OCCOCCOCCO [2,2'-[Ethane-1,2-diylbis(oxy)]diethanol]
-4

Need melting point, item `O=c1ncn2nc(Sc3ccccc3)ccc2c1-c1c(Cl)cccc1Cl`
264

Need melting point, item Cc1cc(Cl)nc2ccccc12 [2-Chloro-4-methylquinoline]
56.9

###

Values of melting point strictly less than 200 °C map to label 1, and values of at least 200 °C map to label 0.

Answered cases to consult:
[[record]]
compound = "CCN1CCCC1CNC(=O)c1cc(S(N)(=O)=O)ccc1OC (stereo not given) [sulpiride]"
category_label = "label 1"

[[record]]
compound = "O=C1c2c(O)ccc([N+](=O)[O-])c2C(=O)c2c([N+](=O)[O-])ccc(O)c21 [1,8-Dihydroxy-4,5-dinitro-9,10-anthraquinone]"
category_label = "label 0"


Does C/C=C/CC [trans-2-pentene] have melting point strictly under 200 °C?
label 1

Does CCOC(=O)c1cc(-c2ccco2)n[nH]1 [ethyl 3-(2-furyl)-1h-pyrazole-5-carboxylate] have melting point strictly under 200 °C?
label 1

Does CSc1ccccc1B(O)O [2-(methylthio)benzeneboronic acid] have melting point strictly under 200 °C?
label 1

###

Classification field: enter condition met for melting point values not below 40 °C, condition not met for values below it.

[[record]]
compound = "Cc1cccc(O)c1 [m-Cresol]"
category_label = "condition not met"


Check if melting point >= 40 °C (inclusive). Item: `C=CC1=C(/C=N/Nc2ccc([N+](=O)[O-])cc2[N+](=O)[O-])CCCC1`
condition met

Check if melting point >= 40 °C (inclusive). Item: CC(C)OB(OC(C)C)OC(C)C [triisopropyl borate]
condition not met

Check if melting point >= 40 °C (inclusive). Item: CC(=O)OC[C@H]1O[C@@H](OC(C)=O)[C@H](OC(C)=O)[C@@H]1OC(C)=O (stereo in doubt) [beta-D-ribofuranose 1,2,3,5-tetraacetate]
condition met

###

Classification field: enter condition met for melting point values not below 100 °C, condition not met for values below it.

Answered cases to consult:
[[record]]
molecule = "CCN(Cc1ccc(Cl)nc1)/C(=C/[N+](=O)[O-])NC"
category_label = "condition not met"

[[record]]
molecule = "O=C(O)c1ccc([N+](=O)[O-])cc1"
category_label = "condition met"

[[record]]
molecule = "O=c1[nH]cc(F)c(=O)[nH]1 [fluorouracil]"
category_label = "condition met"


Check if melting point >= 100 °C (inclusive). Item: `O=C(O)CNc1ccccc1`
condition met

Check if melting point >= 100 °C (inclusive). Item: CCCC(=O)Nc1ccc(OCC(O)CNC(C)C)c(C(C)=O)c1 (centres undefined) [acebutolol]
condition met

Check if melting point >= 100 °C (inclusive). Item: `C[C@@H]1C[C@@H]([C@H](O)CC2CC(=O)NC(=O)C2)C(=O)[C@@H](C)C1`
condition met

Check if melting point >= 100 °C (inclusive). Item: `Nc1ccc(Cl)c(Cl)c1`
condition not met

Check if melting point >= 100 °C (inclusive). Item: O=C(O)c1cc2ccccc2s1 [benzo[b]thiophene-2-carboxylic acid]
condition met

###

Recorded measurements of melting point, one per entry
Return type: number; implicit unit °C.

Consider the following illustrative entries.
[[record]]
compound = "O=C(O)c1ccc(CO)cc1 [p-hydroxymethyl_benzoic_acid]"
property = "melting point"
measured_result = 182

[[record]]
compound = "NCCNc1ccc([N+](=O)[O-])cn1"
property = "melting point"
measured_result = 127

[[record]]
compound = "CCCCc1ccccc1 [N-butylbenzene]"
property = "melting point"
measured_result = -88

[[record]]
compound = "CCC(C)C1(CC)C(=O)NC(=O)NC1=O (configuration not stated) [Butabarbital]"
property = "melting point"
measured_result = 166

[[record]]
compound = "CCCCC(=O)O"
property = "melting point"
measured_result = -34


Need melting point, item `O=c1[nH]c(=O)n([C@H]2C[C@H](O)[C@@H](CO)O2)cc1F`
150

Need melting point, item `O=[N+]([O-])c1c(Br)sc(Br)c1[N+](=O)[O-]`
136

Need melting point, item `Nc1ncccc1OCc1ccccc1`
93

Need melting point, item `Cc1cc(C)cc(O)c1`
63

Need melting point, item `O=C(N[C@H](CO)C(=O)O)OCc1ccccc1`
118

Need melting point, item `Ic1ccccc1`
-31

Need melting point, item `OCc1ccc(F)cc1Cl`
45

Need melting point, item `Cc1cccc(C(=O)O)n1`
129

Need melting point, item O=C(O)[C@@H]1CCCN1 [L-Proline]
228

###

Values of melting point strictly less than 80 °C map to condition met, and values of at least 80 °C map to condition not met.

Answered cases to consult:
[[record]]
compound = "CSCC[C@H](NC(=O)OC(C)(C)C)C(=O)O [N-boc-L-methionine]"
category_label = "condition met"

[[record]]
compound = "Oc1ccc(F)cc1 [4-fluorophenol]"
category_label = "condition met"

[[record]]
compound = "O=C(c1ccccc1)c1ccc(Cl)cc1 [4-chlorobenzophenone]"
category_label = "condition met"

[[record]]
compound = "CCC1(CC)C(=O)NC(=O)N(C)C1=O [Metharbital]"
category_label = "condition not met"

[[record]]
compound = "OCc1ccnc(Cl)c1 [2-chloropyridine-4-methanol]"
category_label = "condition met"


Does Cc1cccc(N)c1 [m-toluidine] have melting point strictly under 80 °C?
condition met

Does CCC/C=C/CCC [trans-4-octene] have melting point strictly under 80 °C?
condition met

Does CCC1(CC)C(=O)NC(=O)NC1=O [5,5-diethylbarbiturate] have melting point strictly under 80 °C?
condition not met

Does Nc1cccnc1N [2,3-diaminopyridine] have melting point strictly under 80 °C?
condition not met

Does C[C@@H](CO)NC(=O)OC(C)(C)C [N-boc-L-alaninol] have melting point strictly under 80 °C?
condition met

Does CC(CC(=O)O)CC(C)(C)C (stereo unspecified) [3,5,5-trimethylhexanoic acid] have melting point strictly under 80 °C?
condition met

###

Recorded measurements of melting point, one per entry
Be sure to follow the number with its unit.

Consider the following illustrative entries.
[[record]]
molecule = "CCCCC/C=C\\C/C=C\\CCCCCCCC(=O)O"
property = "melting point"
measured_result = "-12 °C"

[[record]]
molecule = "c1ccc2cc3cc4ccccc4cc3cc2c1 [2,3-Benzanthracene, Naphthacene]"
property = "melting point"
measured_result = "341 °C"

[[record]]
molecule = "CCOCCOCCO"
property = "melting point"
measured_result = "-76 °C"

[[record]]
molecule = "CCOC(=O)c1ccc(N)cc1 [Ethyl 4-aminobenzoate]"
property = "melting point"
measured_result = "89 °C"

[[record]]
molecule = "Sc1ccc(Br)cc1"
property = "melting point"
measured_result = "75 °C"

[[record]]
molecule = "CC(C)CC=CB(O)O"
property = "melting point"
measured_result = "101 °C"

[[record]]
molecule = "CCOC(=O)/C(=N/Nc1ccc(Cl)cc1)C(=O)C(F)(F)F"
property = "melting point"
measured_result = "76 °C"

[[record]]
molecule = "N#CCc1nc2ccccc2s1"
property = "melting point"
measured_result = "101 °C"

[[record]]
molecule = "CC(C)C=O [2-methylpropanal]"
property = "melting point"
measured_result = "-65 °C"

[[record]]
molecule = "O=C(O)c1c(Cl)cc(Cl)cc1Cl"
property = "melting point"
measured_result = "163 °C"


Need melting point, item C1CC[C@H]2CCCC[C@H]2C1 [cis-decalin]
-43 °C

Need melting point, item `N=C(N)NCCC[C@@H](N)C(=O)O`
235 °C

Need melting point, item CC(COc1ccccc1)NC(C)C(O)c1ccc(O)cc1 (configuration not stated)
103 °C

Need melting point, item Cc1cc(CC(=O)O)n(C)c1C(=O)c1ccc(Cl)cc1 [zomepirac]
178 °C

Need melting point, item CCC1(CC)C(=O)NC(=O)NC1=O [Barbital]
190 °C

Need melting point, item `O=C(O)/C=C/c1ccc(F)cc1`
209 °C
